Values from PubChem BioAssay (NCI)

- Test system: NCI-H322M lung
- Method: NCI-60 one-dose screen, 48 h (100 = growth as untreated, 0 = no growth, -100 = all killed)
- Setup conditions: 10 µM unless noted
Compounds without any hit were thinned out: in the full panel of roughly 83,000, 20% have a hit.
Measure: growth (%)

- COc1ccccc1S(=O)(=O)Nc1ccc2c3c(cc(-c4cnn(C)c4)nc13)C(=O)N2C: 47.4
- Cc1ncc(CO)c(C(=O)O)c1O: 80.9
- CN(C)c1ccc2cc(-c3nc4ccccc4s3)c(N)nc2c1: 49.8
- CCCOC(=O)c1ccc([N+](=O)[O-])o1: 108
- COc1cc2ncnc(Oc3ccc(NC(=O)Nc4ccc(C5(C#N)CCCC5)cc4)c4ccccc34)c2cc1OC: 66.7
- CCOc1cccc(Nc2nc(N)nc3[nH]c4ccc(O)cc4c23)c1: 65.1
- Nc1nccc(=S)[nH]1: 101
- CC(=O)c1ccc2c(c1)C1C=CCC1[C@H](c1cc3c(cc1Br)OCO3)N2 (stereo partly specified): 64.8
- CN(CCNCc1ccccn1)CCNCc1ccccn1: 9.06
- CCC1CN2C(=N1)c1ccccc1-c1cc(Cl)ccc12 (stereo unspecified): 28.3
- COc1cc(/C=C\c2cc(/C=C\c3ccc(O)c(OC)c3)n(C(=O)CNc3ccccc3OC)n2)ccc1O: 90.5
- CC1(C)N=C(N)N=C(N)N1c1ccc(OCC(=O)Nc2ccccc2)c(Cl)c1: 40.2
- O=C(COc1ccc(Cl)cc1Cl)N1N=C(c2ccc(Cl)cc2Cl)CC1(O)c1cc(F)c(Cl)cc1Cl (stereo unspecified): 110
- CCOC(=O)NNc1nncc2ccccc12: 102
- COc1cc(Cn2cc3c(c2)-c2onc(CO)c2CC3)cc(OC)c1OC: 85.1
- O=C(O)c1ccc(-n2cc(/C=N/Nc3ccc(Cl)cc3)c(-c3ccc(F)c(F)c3)n2)cc1: 72.5
- CC1(C)N=C(N)N=C(N)N1c1cccc(CCCCc2ccccc2)c1: 21.6
- O=C(CSc1nnc(-c2ccccc2)o1)Nc1ccc(C(=O)/C=C/c2ccccc2)cc1: 71.1
- CCCc1nn2c(CCC(=O)c3nc4ccc([N+](=O)[O-])cc4[nH]3)nnc2s1: 97.9
- CCCCCCCC(=O)SCC/C=C/[C@@H]1CC(=O)NCc2nc(cs2)C2=N[C@@](C)(CS2)C(=O)N[C@@H](C(C)C)C(=O)N1: 1.39
- O=C(Cn1c2ccccc2c2ccncc21)N/N=C/c1cc(O)c(O)c(O)c1: 108
